test system: Human diffuse large B-cell lymphoma cell line (TMD8); assay: Inhibition of TMD8 cell proliferation (CellTiter luminescent viability); assay type: cell-based; conditions: Homo sapiens, TMD8, 96 h, Table IF1, AR inhibitor-based, TMD8, 10 nM, read-out: Inhibition Rate at 10 nM (%)
Kindly supply the reported inhibition at 0.01 µM values for the records listed here.

{"Compound": "N#Cc1ccc(O[C@H]2CC[C@H](NC(=O)c3ccc(N4CCC(CN5CC6CCC5CN6c5ccc6c(c5)C(=O)N(N5CCC(=O)NC5=O)C6=O)CC4)nn3)CC2)cc1Cl (stereo partly drawn)", "Reading": "10 to 15%"}
{"Compound": "CC1(C)[C@H](NC(=O)c2ccc(N3CCC(CN4CCN(c5cc6c(cc5F)C(=O)N(N5CCC(=O)NC5=O)C6=O)CC4)CC3)nc2)C(C)(C)[C@H]1Oc1ccc(C#N)c(Cl)c1", "Reading": "30 to 35%"}

Record inhibition at 0.01 µM for all entries; do not skip any.
1. O=C1CCN(N2C(=O)c3ccc(COc4ccc(Cl)cc4-c4nc5cc(C(F)(F)F)cc(Cl)c5[nH]4)cc3C2=O)C(=O)N1
2. N#Cc1ccc(O[C@H]2CC[C@H](NC(=O)c3ccc(N4CCC(CN5CCN(C6CCN(c7ccc8c(c7)C(=O)N(N7CCC(=O)NC7=O)C8=O)CC6)CC5)CC4)nn3)CC2)cc1Cl
3. N#Cc1ccc(O[C@H]2CC[C@H](NC(=O)c3ccc(N4CCC(CN5C6CC5CN(c5ccc7c(c5)C(=O)N(N5CCC(=O)NC5=O)C7=O)C6)CC4)nn3)CC2)cc1Cl
4. CNC(=O)c1ccc(N2C(=S)N(c3ccc(C#N)c(C(F)(F)F)c3)C(=O)C2(C)C)cc1F [Enzalutamide, reference compound]

Response:
1: 15 to 20%; 2: 10 to 15%; 3: 15 to 20%; 4: 10 to 15%
